# EXPERIMENTAL SYSTEM: hSARM1 (Homo sapiens, UniProt Q6SZW1)
# Construct: This assay makes use of full length SARM1, which encompasses the ARM, SAM and TIR domains; cleared lysate used as enzyme)
# Sequence (Q6SZW1 28-724): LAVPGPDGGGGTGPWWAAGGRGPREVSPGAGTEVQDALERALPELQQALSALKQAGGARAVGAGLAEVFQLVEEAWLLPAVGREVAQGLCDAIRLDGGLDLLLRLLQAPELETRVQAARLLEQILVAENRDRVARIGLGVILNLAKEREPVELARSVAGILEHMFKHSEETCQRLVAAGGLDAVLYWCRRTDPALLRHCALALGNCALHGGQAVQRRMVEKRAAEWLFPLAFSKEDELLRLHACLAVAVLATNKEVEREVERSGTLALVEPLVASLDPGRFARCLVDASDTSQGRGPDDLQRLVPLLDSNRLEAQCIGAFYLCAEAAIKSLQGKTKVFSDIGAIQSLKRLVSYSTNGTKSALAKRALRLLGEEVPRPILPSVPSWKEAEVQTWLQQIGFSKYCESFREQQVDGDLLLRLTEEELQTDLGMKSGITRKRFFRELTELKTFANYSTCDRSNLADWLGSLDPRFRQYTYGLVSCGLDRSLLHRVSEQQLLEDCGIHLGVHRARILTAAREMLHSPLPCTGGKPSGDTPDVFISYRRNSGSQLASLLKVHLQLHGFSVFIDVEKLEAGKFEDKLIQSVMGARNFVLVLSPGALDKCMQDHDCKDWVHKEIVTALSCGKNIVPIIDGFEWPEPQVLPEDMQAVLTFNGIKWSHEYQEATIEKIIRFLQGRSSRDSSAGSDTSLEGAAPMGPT
# ASSAY EXPLANATION: ARM-SAM-TIR SARM1 IC50 Assay (NADase activity, NAD+ cleavage, RapidFire MS)
# PROTOCOL CONDITIONS: ARM-SAM-TIR lysate 5 μg/mL, 2 hrs. pre-incubation with compound, 5 μM NAD+, 2 hrs. incubation
pIC50: −log10 of the molar value.
OUTCOME MEASURE: pIC50

I looked up O=C1NCN(C(=O)CCc2ccc(Cl)cc2)c2[nH]nc(-c3ccncc3)c21 [Example 25] and its pIC50 for hSARM1 (Homo sapiens, UniProt Q6SZW1) was 6.30 to 7.00

Measured pIC50 (hSARM1 (Homo sapiens, UniProt Q6SZW1)), entry O=C1NCN(C(=O)CCc2cnc(Cl)c(F)c2)c2[nH]nc(-c3ccncc3)c21 [Example 27] : < 6.00

Form field pIC50 for item Cc1cnncc1-c1n[nH]c(NC(=O)CCc2ccc(Cl)c(F)c2)c1C(N)=O [Example 17] on hSARM1 (Homo sapiens, UniProt Q6SZW1): 6.00 to 6.30

Here CNC(=O)c1c(-c2ccnnc2)n[nH]c1NC(=O)CCc1ccc(F)nc1 [Example 18] was tested on hSARM1 (Homo sapiens, UniProt Q6SZW1), and its pIC50 came to < 6.00

Considering O=C(CCc1ccc(Cl)c(F)c1)Nc1[nH]nc2c1c(=O)[nH]c1cnccc12 [Example 4] , its pIC50 with hSARM1 (Homo sapiens, UniProt Q6SZW1) was recorded as > 7.30

The compound NC(=O)c1c(-c2ccncc2)n[nH]c1NC(=O)CCc1cnc(Cl)c(F)c1 [Example 12] , tested on hSARM1 (Homo sapiens, UniProt Q6SZW1), showed pIC50 of 6.30 to 7.00

Known value: hSARM1 (Homo sapiens, UniProt Q6SZW1) pIC50 of the compound NC(=O)c1c(-c2ccncc2)n[nH]c1NC(=O)CCc1ccc(Cl)s1 [Example 15] equals 6.30 to 7.00
